IC50 values recorded for UniProtKB P00533

// known answers, use as guide
- MOLECULE: "C=CC(=O)NC1CCC(c2ccc3ncnc(Nc4ccc(Oc5ccc6c(c5)nnn6C)c(C)c4)c3n2)CC1 (stereo not shown)"
  IC50: "50 to 100 nM"
- MOLECULE: "C=CC(=O)N1CCN(c2ccc3ncnc(Nc4ccc(Oc5cc(F)c6c(c5)nnn6C)c(C)c4)c3n2)C[C@H]1C"
  IC50: "50 to 100 nM"
- MOLECULE: "C=CC(=O)N[C@@H]1CCCN(c2ncc3ncnc(Nc4ccc(Oc5ccc6c(c5)nnn6C)c(C)c4)c3n2)C1"
  IC50: "100 to 500 nM"

**Q:** Please provide the recorded IC50 for C=CC(=O)N[C@H]1CCN(c2ccc3ncnc(Nc4ccc(Oc5ccc6c(c5)nnn6C)c(C)c4F)c3n2)C[C@@H]1F , tested on UniProtKB P00533.
**A:** 100 to 500 nM

**Q:** How about C=CC(=O)N1CCN(c2ncc3ncnc(Nc4ccc(Oc5cc6nnn(C)c6c(C)c5F)c(C)c4)c3n2)CC1 ?
**A:** 100 to 500 nM

**Q:** How about C=CC(=O)N1CCC12CN(c1ncc3ncnc(Nc4ccc(Oc5ccc6c(c5)nnn6C)c(C)c4F)c3n1)C2 ?
**A:** 100 to 500 nM

**Q:** How about C=CC(=O)N1CCN(c2ccc3ncnc(Nc4ccc(Oc5ccc6c(c5)nnn6C)c(C)c4)c3n2)CC[C@@H]1C ?
**A:** 500 to 1000 nM

----------
Structures can show the parent of a compound that is named as a salt.
IC50 values recorded for EGFR WT (Homo sapiens (Human))

- MOLECULE: "C=CC(=O)N1CCN(c2ncc3ncnc(Nc4cc(C)c(Oc5ccc6c(c5)ncn6C(F)F)cc4OC)c3n2)CC1"
  ATTRIBUTE MEASURED: "IC50"
  EXPERIMENTAL VALUE: "100 to 500 nM"
- MOLECULE: "C=CC(=O)N1CCN(c2ncc3ncnc(Nc4ccc(Oc5ccc6c(c5)nnn6C)c(C)c4)c3n2)[C@@H](C)C1 [Compound 18, trifluoroacetate]"
  ATTRIBUTE MEASURED: "IC50"
  EXPERIMENTAL VALUE: "100 to 500 nM"
- MOLECULE: "C=CC(=O)N1CCN(c2ncc3ncnc(Nc4ccc(Oc5ccc6c(c5)nnn6C)c(C)c4)c3n2)C[C@@H]1C1CC1"
  ATTRIBUTE MEASURED: "IC50"
  EXPERIMENTAL VALUE: "≥ 1000 nM"
- MOLECULE: "COC[C@@H]1CN(c2ccc3ncnc(Nc4ccc(Oc5ccc6c(c5)nnn6C)c(C)c4F)c3n2)CCN1C(=O)/C=C/CF"
  ATTRIBUTE MEASURED: "IC50"
  EXPERIMENTAL VALUE: "50 to 100 nM"
- MOLECULE: "C=CC(=O)N1CCN(c2ccc3ncnc(Nc4ccc(Oc5ccc6c(c5)nnn6C(F)F)c(C)c4)c3n2)CC1(C)C"
  ATTRIBUTE MEASURED: "IC50"
  EXPERIMENTAL VALUE: "100 to 500 nM"

Now turn to the next molecule.
**Q:** Please provide the recorded IC50 for C=CC(=O)N[C@@H]1CCCN(c2ccc3ncnc(Nc4cc(C)c(Oc5ccc6c(c5)nnn6C)cc4OC(F)F)c3n2)C1 , tested on EGFR WT (Homo sapiens (Human)).
Sequence (P00533 25-1210): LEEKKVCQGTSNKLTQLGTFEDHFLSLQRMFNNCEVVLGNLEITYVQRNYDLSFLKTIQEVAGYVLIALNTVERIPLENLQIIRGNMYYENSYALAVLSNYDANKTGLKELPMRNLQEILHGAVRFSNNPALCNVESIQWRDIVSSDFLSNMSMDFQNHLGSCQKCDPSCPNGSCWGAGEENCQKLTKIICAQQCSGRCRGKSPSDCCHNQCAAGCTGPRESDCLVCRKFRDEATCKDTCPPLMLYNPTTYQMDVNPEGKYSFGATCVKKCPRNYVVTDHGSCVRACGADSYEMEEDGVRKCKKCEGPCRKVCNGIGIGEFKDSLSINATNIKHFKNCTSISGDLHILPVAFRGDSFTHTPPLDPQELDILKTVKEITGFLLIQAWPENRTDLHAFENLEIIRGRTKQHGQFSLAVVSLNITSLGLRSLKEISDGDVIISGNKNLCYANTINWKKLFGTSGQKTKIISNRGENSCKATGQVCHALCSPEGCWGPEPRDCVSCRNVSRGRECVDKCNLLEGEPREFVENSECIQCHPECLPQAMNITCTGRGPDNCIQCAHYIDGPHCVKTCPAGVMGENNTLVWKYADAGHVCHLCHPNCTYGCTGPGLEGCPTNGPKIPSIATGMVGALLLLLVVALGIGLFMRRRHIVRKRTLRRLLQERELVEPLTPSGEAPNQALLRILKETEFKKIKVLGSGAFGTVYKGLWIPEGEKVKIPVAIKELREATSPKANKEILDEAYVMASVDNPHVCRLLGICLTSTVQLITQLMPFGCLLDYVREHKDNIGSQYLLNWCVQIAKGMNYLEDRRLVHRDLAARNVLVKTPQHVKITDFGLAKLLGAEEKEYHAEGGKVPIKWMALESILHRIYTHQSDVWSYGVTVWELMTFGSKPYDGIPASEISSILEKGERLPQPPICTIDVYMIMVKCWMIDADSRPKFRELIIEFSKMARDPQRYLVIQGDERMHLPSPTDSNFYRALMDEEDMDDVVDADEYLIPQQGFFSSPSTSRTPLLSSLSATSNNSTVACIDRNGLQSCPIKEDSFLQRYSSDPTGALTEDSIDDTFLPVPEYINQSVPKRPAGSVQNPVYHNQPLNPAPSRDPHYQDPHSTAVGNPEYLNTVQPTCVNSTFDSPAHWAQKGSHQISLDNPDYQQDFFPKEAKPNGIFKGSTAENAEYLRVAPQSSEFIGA
**A:** ≥ 1000 nM
